Origin of values: PubChem BioAssay AID1159580

test: chemical genetic growth profiling, strain panel (AID 1159580);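 further: tested at 20 µM; growth read once vehicle control cultures reached saturation at 30 °C; 1 = growth at the plate median or of vehicle wells; lower values mean less growth of the strain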; settings: S. cerevisiae deletion strains, growth OD, locus YNL271C, strain bni1, hits give low values
Among all 5,500 compounds or so, about 2,000 (36%) were called active. Inconclusive results (about 18%) are left out. Some of the results follow.
The following compounds are listed with their measured normalized growth values.
VALUE_KIND: normalized growth

compound=NC1=NCCN1CC(=O)O assay_result=0.998
compound=O=C(O)C1=CCCNC1 assay_result=0.994
compound=COc1ccc([C@@H]2CC(=O)c3c(O)cc(O[C@@H]4O[C@H](CO[C@H]5O[C@@H](C)[C@H](O)[C@@H](O)[C@H]5O)[C@@H](O)[C@H](O)[C@H]4O)cc3O2)cc1O assay_result=1
compound="CC12CCC3C(CC3(C)C)C(C)(CCC1=O)O2 (stereo unspecified)" assay_result=1.02
compound=Cc1cc(=O)oc2cc(O)c(O)cc12 assay_result=0.993
compound=NCC(=O)c1ccccc1 assay_result=0.986
compound=NC(=O)NC(=O)Cc1ccccc1 assay_result=0.992
compound=NCCCCCCNS(=O)(=O)c1cccc2c(Cl)cccc12 assay_result=0.997
compound=CCCSc1ccc2nc(NC(=O)OC)[nH]c2c1 assay_result=0.973
compound="CCC(C)C(=O)OC1[C@@H]2CC3=C4CC(=O)O[C@@H](c5ccoc5)[C@]4(C)CCC3[C@@](C)(C2=O)[C@@H](CC(=O)OC)C1(C)C (stereo partly specified)" assay_result=1
compound=CNCCCC12CCC(c3ccccc31)c1ccccc12 assay_result=0.993
compound=COc1cc(C(C)=O)cc(OC)c1O assay_result=0.996
compound=CCOC(=O)[C@H](CCc1ccccc1)N[C@@H](C)C(=O)N1CCC[C@H]1C(=O)O assay_result=1.02
compound="NCC(N)C(=O)c1ccccc1 (stereo unspecified)" assay_result=1.01
compound="CC(CCc1ccccc1)NCC(O)c1ccc(O)c(C(N)=O)c1 (stereo unspecified)" assay_result=1.01
compound=OC[C@H]1O[C@@H](O[C@@H]2[C@@H](CO)O[C@](O)(CO)[C@H]2O)[C@H](O)[C@@H](O)[C@H]1O assay_result=0.966

---

test: chemical genetic growth profiling, strain panel (AID 1159580);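 further: tested at 20 µM; growth read once vehicle control cultures reached saturation at 30 °C; 1 = growth at the plate median or of vehicle wells; lower values mean less growth of the strain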; settings: S. cerevisiae deletion strains, growth OD, locus YIL066C, strain RNR3, hits give low values
In all, about 5,500 compounds went through this assay and about 2,000 (36%) were called active. Not shown: some 18% with an inconclusive outcome. The list shows a part of the results.
Measured normalized growth, listed per entry for reference.
VALUE_KIND: normalized growth

compound="CC(=O)O[C@H]1CCC2(C)C3=C(CCC2C1(C)C)[C@@]1(C)CC[C@@H](C(C)CCC=C(C)C)[C@]1(C)CC3 (some centres undefined)" assay_result=1.02
compound="CC(C)CCCC(C)C1CC[C@@]2(C)C3=C(CC[C@]12C)[C@@]1(C)CC[C@H](O)C(C)(C)C1CC3 (some centres undefined)" assay_result=1.01
compound=COc1cc(C/C=C/c2ccccc2)c(OC)cc1O assay_result=0.971
compound=CN(C)[C@@H]1C(=O)C(C(N)=O)=C(O)[C@@]2(O)C(=O)C3=C(O)c4c(O)ccc(Cl)c4[C@@H](O)[C@H]3C[C@@H]12 assay_result=1.01

---

test: chemical genetic growth profiling, strain panel (AID 1159580);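 further: tested at 20 µM; growth read once vehicle control cultures reached saturation at 30 °C; 1 = growth at the plate median or of vehicle wells; lower values mean less growth of the strain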; settings: S. cerevisiae deletion strains, growth OD, locus YPL204W, strain HRR25, hits give low values
About 2,000 (36%) of roughly 5,500 compounds were called active. About 18% were inconclusive and are not listed. This is one part of the list.
VALUE_KIND: normalized growth

molecule="O=C(CSC1=NNC(c2ccccn2)S1)Nc1ccccc1 (stereo not drawn)" assay_result=0.923
molecule=CC(C)(C)c1cc(C(=O)NNc2cccc(Cl)c2)n(Cc2ccccc2)n1 assay_result=0.889
molecule=N/C(Cc1cccc2ccccc12)=N/OC(=O)c1ccc(Cl)cc1 assay_result=0.922

---

# Lookup of reported normalized growth keyed by entry
test: chemical genetic growth profiling, strain panel (AID 1159580);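 further: tested at 20 µM; growth read once vehicle control cultures reached saturation at 30 °C; 1 = growth at the plate median or of vehicle wells; lower values mean less growth of the strain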; conditions: S. cerevisiae deletion strains, growth OD, locus YLR262C, strain YPT6 (second series), hits give low values
About 2,000 (36%) of roughly 5,500 compounds were called active. Not shown: some 18% with an inconclusive outcome. The list shows a part of the results.
VALUE_KIND: normalized growth

molecule=CN(C)CCCN1c2ccccc2CCc2ccccc21 assay_result=1.04
molecule=OC[C@H]1O[C@@H](O[C@H]2[C@H](O)[C@@H](O)[C@@H](O)O[C@@H]2CO)[C@H](O)[C@@H](O)[C@@H]1O assay_result=1.04
molecule="CC(Cc1cccc(C(F)(F)F)c1)NCCOC(=O)c1ccccc1 (centres undefined)" assay_result=0.785
molecule="CC1=CCCC2C1(C)CCC(C)C2(C)CC/C(C)=C/C[n+]1cn(C)c2c(N)ncnc21 (centres undefined)" assay_result=1.03
molecule=CN(C)CCCN1c2ccccc2Sc2ccc(Cl)cc21 assay_result=0.165
molecule="CC(=O)OCC(=O)[C@@]1(O)[C@H](C)CC2C3CCC4=CC(=O)C=C[C@]4(C)[C@@]3(F)[C@@H](O)C[C@@]21C (some centres undefined)" assay_result=0.92
molecule=CC(=O)c1ccc(O)c(CC=C(C)C)c1 assay_result=0.968
molecule=OC[C@H]1O[C@@H](O[C@@H]2[C@@H](CO)O[C@](O)(CO)[C@H]2O)[C@H](O)[C@@H](O)[C@H]1O assay_result=1.03
molecule=CCN(CC)CCOCCOC(=O)C1(c2ccccc2)CCCC1 assay_result=0.947
molecule=O=C(O)c1cccnc1 assay_result=1.01
molecule="CC(C)CCCC(C)[C@H]1CCC2C3CC=C4C[C@@H](O)CC[C@]4(C)C3CC[C@@]21C (some centres undefined)" assay_result=0.987
molecule=O=C1NC(O)=NC1(c1ccccc1)c1ccccc1 assay_result=1.05
molecule=CN(C)CCCN1c2ccccc2Sc2ccccc21 assay_result=1.01
molecule=CS(=O)(=O)Nc1ccc([N+](=O)[O-])cc1Oc1ccccc1 assay_result=0.889
molecule=CC1=CC(=O)c2c(O)cccc2C1=O assay_result=0.0717
molecule=Cc1scc2c1N(C(=O)CN1CCN(C)CC1)c1ccccc1NC2=O assay_result=0.962
molecule=C[n+]1ccccc1/C=N/O assay_result=1.02
molecule="CC(C)c1ccc2c(c1)CCC1[C@](C)(CN)CCC[C@]21C (some centres undefined)" assay_result=0.959
molecule="COc1ccc(C2Sc3ccccc3N(CCN(C)C)C(=O)C2OC(C)=O)cc1 (centres undefined)" assay_result=0.977
molecule="CC(C)CCCC(C)[C@H]1CCC2C3CC=C4CC(=O)CC[C@]4(C)C3CC[C@@]21C (some centres undefined)" assay_result=0.855
molecule="CC(N=C(NC#N)Nc1ccncc1)C(C)(C)C (centres undefined)" assay_result=0.947
molecule=CC(=O)c1cc(CC=C(C)C)c(O)c(CC=C(C)C)c1 assay_result=0.949
molecule="CC(CCc1ccccc1)NCC(O)c1ccc(O)c(C(N)=O)c1 (centres undefined)" assay_result=1.02
molecule="CC(C)CCCC(C)C1CCC2C3CC(=O)[C@H]4C[C@@H](O)CC[C@]4(C)C3CC[C@]12C (some centres undefined)" assay_result=0.76
molecule="Cc1c(C)c2c(c(C)c1O)CCC(C)(CCCC(C)CCCC(C)CCCC(C)C)O2 (centres undefined)" assay_result=0.98
molecule=NC(=O)c1cccnc1 assay_result=0.965
molecule=COc1ccc2cc(CCC(C)=O)ccc2c1 assay_result=1.03
molecule="CC12CCC3C(CC3(C)C)C(C)(CCC1=O)O2 (centres undefined)" assay_result=0.992
molecule=CC[N+](C)(C)c1cccc(O)c1 assay_result=1.05
molecule="CCN1CCN(C(=O)NC(C(=O)N[C@@H]2C(=O)N3[C@@H]2SC(C)(C)[C@@H]3C(=O)O)c2ccccc2)C(=O)C1=O (some centres undefined)" assay_result=0.983
molecule=Cc1cc(=O)oc2cc(O)cc(O)c12 assay_result=0.977
molecule="CC(C)CCCC(C)C1CCC2C3C[C@@H](O)[C@@]4(O)C[C@@H](O)CC[C@]4(C)C3CC[C@]12C (some centres undefined)" assay_result=0.502
molecule=OC[C@H]1O[C@@](CO)(O[C@@H]2O[C@H](CO)[C@@H](O)[C@H](O)[C@H]2O)[C@@H](O[C@@H]2O[C@H](CO)[C@@H](O)[C@H](O)[C@H]2O)[C@@H]1O assay_result=1
molecule=CCOC(=O)[C@H](CCc1ccccc1)N[C@@H](C)C(=O)N1CCC[C@H]1C(=O)O assay_result=0.998
molecule=COc1cc(C/C=C/c2ccccc2)c(OC)cc1O assay_result=0.95
molecule=Oc1cccc(O)c1 assay_result=1
molecule="CN1CCN(C(=O)OC2c3nccnc3C(=O)N2c2ccc(Cl)cn2)CC1 (centres undefined)" assay_result=1
molecule=COC(=O)/C(=C1\OC(=O)C(c2ccccc2)=C1O)c1ccccc1 assay_result=0.915
molecule=CS(=O)(=O)c1ccc([C@@H](O)[C@@H](CO)NC(=O)C(Cl)Cl)cc1 assay_result=1.03
molecule=CCN(CC)CCOC(=O)C1(C2CCCCC2)CCCCC1 assay_result=1.04
molecule="O=P1(NCCCl)OCCCN1CCCl (centres undefined)" assay_result=1.01
molecule="CC1(C)CC2C1CC[C@]1(C)CCC3C(C(=O)O)CC(=O)O[C@@]32C1 (some centres undefined)" assay_result=1.07
molecule=O=C(NCO)c1cccnc1 assay_result=0.995
molecule=C/C1=C/CC(C)(C)/C=C/C/C(C)=C/CC1 assay_result=0.994
